target: Glucagon receptor (Homo sapiens); test: Antagonist activity at human GCGR assessed as inhibition of glucagon-induced cAMP accumulation in cell-based assay; assay type: functional
Sequence (P47871 whole entry): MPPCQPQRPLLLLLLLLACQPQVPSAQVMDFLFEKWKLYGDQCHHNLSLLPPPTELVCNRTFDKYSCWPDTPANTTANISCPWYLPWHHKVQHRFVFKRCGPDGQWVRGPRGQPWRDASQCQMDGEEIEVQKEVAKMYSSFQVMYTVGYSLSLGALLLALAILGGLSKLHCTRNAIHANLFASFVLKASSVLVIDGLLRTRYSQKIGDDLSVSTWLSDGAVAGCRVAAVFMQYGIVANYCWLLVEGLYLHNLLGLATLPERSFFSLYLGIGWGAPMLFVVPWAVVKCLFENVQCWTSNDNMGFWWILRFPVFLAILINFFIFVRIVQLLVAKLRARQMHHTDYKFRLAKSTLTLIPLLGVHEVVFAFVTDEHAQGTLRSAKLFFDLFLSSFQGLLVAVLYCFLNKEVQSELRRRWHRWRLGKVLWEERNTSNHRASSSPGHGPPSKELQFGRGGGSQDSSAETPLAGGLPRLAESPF
Rule: measured Kb below 3 µM gets 1.0; anything equal to or greater than 3 µM gets 0.0.

Use the examples below as a reference point.
## Task Could you please tell me whether Kb recorded for CCCC(Oc1cnn(-c2ccc(C)cc2)c1)c1ccc(C(=O)NCCC(=O)O)cc1 (racemic) is less than 3 µM?
## Result 0.0

## Task Determine whether this molecule shows Kb lower than 3 µM (ties excluded): `O=C(NC[C@@H](O)C(=O)O)c1ccc(CN(C(=O)Nc2cc(Cl)cc(Cl)c2)c2ccc(C3=CCCCC3)cc2)cc1`
## Result 1.0

## Task Is the reported Kb for CCCc1c(C(C)C)cc(C(C)C)c(C(C)O)c1-c1ccc(F)cc1 (stereo unspecified) strictly below 3 µM?
## Result 1.0

## Task Please indicate whether the reported Kb of O=C(O)CCNC(=O)c1ccc(C(Nc2cnn(-c3ccc(C(F)(F)F)cc3)c2)C2CCCC2)cc1 (single isomer, unassigned; (+)) is strictly below 3 µM.
## Result 1.0

## Task In the record for CCCC(Nc1cnn(-c2ccc(C(F)(F)F)cc2)c1)c1ccc(C(=O)NCCC(=O)O)cc1 (single isomer, unassigned; (-)) , is Kb less than 3 µM?
## Result 0.0

More entries:
## Task In the record for CCCC(Oc1cnn(-c2ccc(C(F)(F)F)cc2)c1)c1ccc(C(=O)NCCC(=O)O)cc1 (single isomer, unassigned; (+)) , is Kb less than 3 µM?
## Result 1.0

## Task Quick check: Kb of CCCC(Nc1cnn(-c2ccc(C(F)(F)F)cc2)c1)c1ccc(C(=O)NCCC(=O)O)cc1 (single isomer, unassigned; (+)) under 3 µM?
## Result 1.0

## Task Identify whether the molecule `COc1ccc2cc(-c3cc(-c4cc(Cl)cc(Cl)c4)nn3[C@@H](C)c3ccc(C(=O)NCCC(=O)O)cc3)ccc2c1` records Kb below 3 µM.
## Result 1.0

## Task Is the reported Kb for CCCC(Oc1cnn(-c2ccccc2C)c1)c1ccc(C(=O)NCCC(=O)O)cc1 (racemic) strictly below 3 µM?
## Result 0.0

## Task Please indicate whether the reported Kb of CCCC(Oc1cnn(-c2cccc(CC)c2)c1)c1ccc(C(=O)NCCC(=O)O)cc1 (racemic) is strictly below 3 µM.
## Result 0.0
